test system: OVCAR-3 ovarian; assay: NCI tumour cell line growth inhibition, 48 h
OBSERVABLE: TGI (µM)

compound="CC(ON(C(c1ccccc1)C(C)C)C(C)(C)C)c1ccccc1 (stereo not given)" cmp== reported_value=30
compound=CC(=O)Nc1ccc(NCC(=O)Nn2cnc3ccc(S(=O)(=O)Nc4ccc(NC(C)=O)cc4)cc3c2=O)cc1 cmp=> reported_value=100
compound="Cn1cnc([N+](=O)[O-])c1Sc1nc(N)nc2c1ncn2C1OC(CO)C(O)C1O (stereo not given)" cmp=> reported_value=43.4
compound=Cc1c(N2C(=O)/C(=C/c3ccc(Cl)cc3)N=C2c2ccccc2)c(=O)n(-c2ccccc2)n1C cmp=> reported_value=100
compound=O=C1CSCc2sccc21 cmp=> reported_value=100
compound=COc1ccc(C/C(=N/O)C(=O)NCCc2cc(Br)c(OCCCN(C)C)c(Br)c2)cc1Br cmp== reported_value=40.4
compound="CN1C(=O)CCC1(O)C1C=CC=CC1 (stereo not given)" cmp=> reported_value=100
compound="CCN1C(=S)N(c2ccccc2)C2NC(=S)N(/N=C/C=C/c3ccccc3OC)C21 (stereo not given)" cmp== reported_value=0.721
compound=COCCNCc1ccc(-c2cc3nccc(Oc4ccc(NC(=S)NC(=O)Cc5ccc(F)cc5)cc4F)c3s2)nc1 cmp== reported_value=3.52
compound=CC(C)OP(=O)(OC(C)C)/C(Cl)=N/Nc1ccc([N+](=O)[O-])cc1 cmp=> reported_value=100

====

system: A498 renal; assay: NCI tumour cell line growth inhibition, 48 h
OBSERVABLE: TGI

compound=O=C(O[C@@H](/C=C/c1ccccc1)P1(=O)N(Cc2ccccc2)[C@H]2CCCC[C@@H]2N1Cc1ccccc1)c1ccccc1 reported_value="8.43 µM"
compound="CC[C@H](C)[C@H]1NC(=O)[C@@H](NC(=O)[C@@H](CC(C)C)N(C)C(=O)C2CCCN2C(=O)[C@H](C)O)[C@@H](C)OC(=O)[C@H](Cc2ccc(OC)cc2)N(C)C(=O)[C@@H]2CCCN2C(=O)[C@H](CCCCNC(=O)OCc2ccccc2)NC(=O)[C@H](C)C(=O)[C@H](C(C)C)OC(=O)C[C@@H]1O (stereo partly drawn)" reported_value="> 25 µM"
compound=Cc1cc(NCCCCCCCCNc2cc(C)nc3cc(N)ccc23)c2ccc(N)cc2n1 reported_value="> 100 µM"

====

system: OVCAR-5 ovarian; experiment: NCI tumour cell line growth inhibition, 48 h
OBSERVABLE: TGI

molecule=CC(C)=CCC[C@@H](C)/C=C/C=C(\C)C(=O)CC[C@@H]1CC[N@+]2(C)CCCC[C@H]12 target_under_test="OVCAR-5 ovarian" observable=TGI reported_value="> 100 µM"
molecule="COc1ccc(C2NC(=S)Nc3c2c(=O)oc2c3ccc3ccccc32)cc1 (configuration not stated)" target_under_test="OVCAR-5 ovarian" observable=TGI reported_value="> 100 µM"
molecule="CC(C)C1=CC(=O)C(C)(C2C(O)CC3(C)C4CC=C5C(CCC(OC6OC(CO)C(O)C(O)C6OC6OC(C)C(O)C(O)C6O)C5(C)C)C4(C)C(=O)CC23C)O1 (configuration not stated)" target_under_test="OVCAR-5 ovarian" observable=TGI reported_value="> 100 µM"
molecule=CN(C)c1ccc(C=Nc2ccc(Oc3ccc(Cl)cc3)c(Cl)c2)cc1 target_under_test="OVCAR-5 ovarian" observable=TGI reported_value="> 100 µM"
molecule=N#Cc1cccc2c1Nc1ccccc1S2 target_under_test="OVCAR-5 ovarian" observable=TGI reported_value="> 100 µM"
molecule="COC(=O)C(N)CCCC(N)C(=O)NC(C)C(=O)NC(CCC(=O)NCCNCCNc1c2ccccc2nc2cccc([N+](=O)[O-])c12)C(N)=O (configuration not stated)" target_under_test="OVCAR-5 ovarian" observable=TGI reported_value="> 100 µM"
molecule=CC(=O)O[C@H]1C(=O)[C@@]2(C)[C@H]([C@H](OC(=O)c3cccc([N+](=O)[O-])c3)[C@]3(O)C[C@H](OC(=O)[C@H](O)[C@@H](NC(=O)c4ccccc4)c4ccccc4)C(C)=C1C3(C)C)[C@]1(OC(C)=O)CO[C@@H]1C[C@@H]2O target_under_test="OVCAR-5 ovarian" observable=TGI reported_value="16.4 µM"
molecule=C=C1C(=O)O[C@H]2C/C(C)=C/CC[C@@]3(C)O[C@](C)(CC[C@@H]3I)[C@@H](I)C[C@@H]12 target_under_test="OVCAR-5 ovarian" observable=TGI reported_value="26.2 µM"
molecule="CC(NC(=O)/C(=C/c1ccccc1)NC(=O)c1ccccc1)C(=O)O (configuration not stated)" target_under_test="OVCAR-5 ovarian" observable=TGI reported_value="> 100 µM"
molecule=CCN(Cc1ccc(C)cc1)c1ccc(CO)c(Cl)c1 target_under_test="OVCAR-5 ovarian" observable=TGI reported_value="0.689 µM"
molecule=O=c1oc2ccccc2nc1/C=C(\O)c1ccc(Cl)cc1 target_under_test="OVCAR-5 ovarian" observable=TGI reported_value="> 100 µM"
molecule="COC(=O)CC(NC(=O)OCc1ccccc1)C(C(C)=O)C(=O)OCc1ccccc1 (configuration not stated)" target_under_test="OVCAR-5 ovarian" observable=TGI reported_value="> 100 µM"
molecule=c1ccc2c(Cc3[nH]c4ccccc4c3Cc3c[nH]c4ccccc34)c[nH]c2c1 target_under_test="OVCAR-5 ovarian" observable=TGI reported_value="8.93 µM"
molecule=Cc1nc([P+](c2ccccc2)(c2ccccc2)c2ccccc2)c(Sc2sc(-c3ccccc3)nc2[P+](c2ccccc2)(c2ccccc2)c2ccccc2)o1 target_under_test="OVCAR-5 ovarian" observable=TGI reported_value="8.53 µM"
molecule=O=C1NC(N2CCOCC2)=N/C1=C\c1ccc(Cl)cc1 target_under_test="OVCAR-5 ovarian" observable=TGI reported_value="> 100 µM"
molecule="Cn1cnc([N+](=O)[O-])c1Sc1nc(N)nc2c1ncn2C1OC(CO)C(O)C1O (configuration not stated)" target_under_test="OVCAR-5 ovarian" observable=TGI reported_value="> 100 µM"
molecule=COc1cc(Nc2nc3cc(N)cc(N)c3nc2-c2ccccc2)cc(OC)c1OC target_under_test="OVCAR-5 ovarian" observable=TGI reported_value="46.7 µM"

====

tested on: KM12 colon; test: NCI tumour cell line growth inhibition, 48 h
Listed here are compounds together with their documented TGI.
OBSERVABLE: TGI

compound=O=C1C[C@H](c2ccccc2)O[C@@H](c2ccccc2)C1 reported_value="> 100 µM"
compound=Nc1ccc2c(O)cc(=O)[nH]c2n1 reported_value="> 100 µM"
compound=NS(=O)(=O)c1ccc(Nc2cc(-c3cccc(O)c3)[nH]n2)cc1 reported_value="> 25 µM"
compound=C[C@@H](c1ccccc1)n1c(N)c(-c2ccccn2)c2ccc([N+](=O)[O-])cc2c1=O reported_value="> 100 µM"
compound=Cc1ccc(S(=O)(=O)NC(=O)NCCc2cnc[nH]2)cc1 reported_value="> 100 µM"
compound=CC(C)(CN1CCCCC1)C(=O)/C=C/c1ccc(/C=C/C(=O)C(C)(C)CN2CCCCC2)cc1 reported_value="1.35 µM"
compound=Nc1nccc(-c2c(-c3ccc(F)cc3)ncn2C2CCNCC2)n1 reported_value="> 25 µM"
compound="COC(=O)C1CCC(=O)N1CN(C(C)=O)c1ccccc1Cl (stereo unspecified)" reported_value="> 100 µM"
compound="COC(=O)C(C(=O)C(=O)Nc1c(C)cccc1C)c1cnc2ccccc2n1 (stereo unspecified)" reported_value="> 100 µM"
compound=COC(=O)/C=C1\C(=O)N(C(C)=O)c2ccc(Br)cc21 reported_value="28.6 µM"
compound="COP(=O)(OC)C(=O)N1N(c2ccc([N+](=O)[O-])cc2)C(=O)C(C)NC1(NNc1ccc([N+](=O)[O-])cc1)P(=O)(OC)OC (stereo unspecified)" reported_value="> 100 µM"

====

Measured TGI values are reported for all entries that follow.
tested on: HOP-92 NSCLC; assay: NCI tumour cell line growth inhibition, 48 h
OBSERVABLE: TGI

molecule="CCN1C(=S)N(c2ccccc2)C2NC(=S)N(/N=C/C=C/c3ccccc3OC)C21 (stereo not drawn)" reported_value="> 100 µM"
molecule=O=c1[nH]c2ccccc2c(=O)n1/N=C/c1ccc(O)cc1 reported_value="90.4 µM"
molecule=CC(C)=CCC[C@]1(C)C=Cc2c(O)c3c(c(CC=C(C)C)c2O1)O[C@]12C(=C[C@@H]4CC1C(C)(C)O[C@@]2(C/C=C(/C)C(=O)O)C4=O)C3=O reported_value="9.16 µM"
molecule="CN1c2ccccc2N(C(=O)c2ccc([N+](=O)[O-])cc2)C(CC(=O)O)c2cccn21 (stereo not drawn)" reported_value="> 100 µM"
molecule=CC(=O)O[C@H]1C(=O)[C@@]2(C)[C@H]([C@H](OC(=O)c3cccc([N+](=O)[O-])c3)[C@]3(O)C[C@H](OC(=O)[C@H](O)[C@@H](NC(=O)c4ccccc4)c4ccccc4)C(C)=C1C3(C)C)[C@]1(OC(C)=O)CO[C@@H]1C[C@@H]2O reported_value="> 25 µM"
molecule=Nc1nccc(-c2c(-c3ccc(F)cc3)ncn2C2CCNCC2)n1 reported_value="> 25 µM"
molecule="COc1c(CC=C(C)C)c(O)c(C(CC(C)C)c2c(O)c3c(c(C(C)=O)c2O)OC(C(C)(C)O)C3)c(O)c1C(C)=O (stereo not drawn)" reported_value="6.43 µM"
molecule=COc1cc(NS(C)(=O)=O)ccc1Nc1cc[nH]c2ccc3nccc3c12 reported_value="24.8 µM"
molecule=N#CCCN(c1ccc(C=Nc2ccccc2)cc1)S(=O)(=O)c1ccccc1 reported_value="> 100 µM"
molecule=CC(O)(Cc1ccccc1C#N)Cc1ccccc1C#N reported_value="> 100 µM"
molecule=COc1ccc(/C=C/C(=O)c2cc(OC)c(OC)c(OC)c2)cc1OCC(=O)Nc1nc2ccc(OC(F)(F)F)cc2s1 reported_value="7.32 µM"
molecule=O=C(CSc1nc2ccc([N+](=O)[O-])cc2s1)c1ccc2ccccc2c1 reported_value="> 100 µM"
molecule="CC1=CC(=O)CC(C)(C)C1/C=C/C(C)=C/C=C/C(C)=C/C=C/C=C(C)/C=C/C=C(C)/C=C/C1C(C)=CC(=O)CC1(C)C (stereo not drawn)" reported_value="62.8 µM"
molecule=Cc1ccc(NC(Nc2ccc(C)cc2C)=C(C(Cl)=C(Cl)Cl)[N+](=O)[O-])c(C)c1 reported_value="31.7 µM"
molecule="COc1ccc(N=NC(=O)NC(Cc2ccccc2)C(=O)O)cc1 (stereo not drawn)" reported_value="> 100 µM"
molecule=Cc1ccccc1N=Nc1c(O)c(S(=O)(=O)O)cc2cc(S(=O)(=O)O)ccc12 reported_value="> 100 µM"
molecule=O=C1/C(=C\Oc2ccc(F)cc2)N2CCC1CC2 reported_value="> 100 µM"
molecule=Cc1ccn2c(=O)cc(CN3CCOCC3)nc2c1 reported_value="> 100 µM"
